# assay-name: Partition coefficient, log P of the compound
# Format: physicochemical
# condition-parameters: octanol/water
readout-name: logP
Give a plain numeric answer without units written out.

entry_smiles=COc1cc(Cc2n[nH]c(=S)n2-c2ccc(Cl)cc2)c(S(=O)(=O)N(C)C)cc1OC value_measured=2.4
entry_smiles=COc1cc(Cc2n[nH]c(=S)n2-c2ccccc2)c(S(=O)(=O)N2CCOCC2)cc1OC value_measured=1.57

IN: Name the recorded logP for COc1cc(Cc2n[nH]c(=S)n2-c2ccc(Cl)cc2)c(S(=O)(=O)N2CCCCC2)cc1OC .
OUT: 3.31

IN: Name the recorded logP for COc1cc(Cc2n[nH]c(=S)n2-c2ccc(Cl)cc2)c(S(=O)(=O)N2CCCC2)cc1OC .
OUT: 2.11

IN: Name the recorded logP for COc1cc(Cc2n[nH]c(=S)n2-c2ccccc2)c(S(=O)(=O)N2CCCC2)cc1OC .
OUT: 2.13

* * *

# System: Escherichia coli
# assay-name: Antibacterial activity against Escherichia coli ATCC 35210 after 24 hrs by microdilution test
# Type: functional
# condition-parameters: ATCC 35210, 24 h
Each entry below carries its recorded MIC.
Kindly provide the numeric value in µg/mL only, without the unit symbol.

Some solved cases for reference:
entry_smiles=COc1cc(Cc2n[nH]c(=S)n2-c2ccc(Cl)cc2)c(S(=O)(=O)N2CCCC2)cc1OC target_under_test="Escherichia coli" readout_name=MIC value_measured=150
entry_smiles=COc1cc(Cc2n[nH]c(=S)n2-c2ccccc2)c(S(=O)(=O)N2CCOCC2)cc1OC target_under_test="Escherichia coli" readout_name=MIC value_measured=100
entry_smiles=CCN(CC)S(=O)(=O)c1cc(OC)c(OC)cc1Cc1n[nH]c(=S)n1-c1ccc(Cl)cc1 target_under_test="Escherichia coli" readout_name=MIC value_measured=100

IN: Form field - read-out: MIC; system: Escherichia coli; submitted item: COc1cc(Cc2n[nH]c(=S)n2-c2ccccc2)c(S(=O)(=O)N(C)C)cc1OC
OUT: 100

IN: Form field - read-out: MIC; system: Escherichia coli; submitted item: COc1cc(Cc2n[nH]c(=S)n2-c2ccccc2)c(S(=O)(=O)N2CCCC2)cc1OC
OUT: 150

* * *

Each entry below carries its recorded MBC.
# Tested on: Staphylococcus epidermidis
# assay-name: Antibacterial activity against Staphylococcus epidermidis ATCC 12228 after 24 hrs by microdilution test
# Type: functional
# condition-parameters: ATCC 12228, 24 h

Some solved cases for reference:
molecule=COc1cc(Cc2n[nH]c(=S)n2-c2ccccc2)c(S(=O)(=O)N2CCOCC2)cc1OC readout_name=MBC value_measured="150 µg/mL"
molecule=COc1cc(Cc2n[nH]c(=S)n2-c2ccccc2)c(S(=O)(=O)N2CCCCC2)cc1OC readout_name=MBC value_measured="150 µg/mL"
molecule="CN[C@@H]1[C@H](O[C@H]2[C@H](O[C@H]3[C@H](O)[C@@H](O)[C@H](N=C(N)N)[C@@H](O)[C@@H]3N=C(N)N)O[C@@H](C)[C@]2(O)C=O)O[C@@H](CO)[C@H](O)[C@H]1O [STREPTOMYCIN]" readout_name=MBC value_measured="100 µg/mL"

Next molecule, please.
IN: Name the recorded MBC for COc1cc(Cc2n[nH]c(=S)n2-c2ccc(Cl)cc2)c(S(=O)(=O)N2CCCCC2)cc1OC .
OUT: 150 µg/mL

Sourced from ChEMBL document CHEMBL1143237
